Reported Population Tubulin-Different-Phenotype (%) values for a set of compounds
system: Fibroblast; test: Multiplex assay against human fibroblast; format: toxicity, cell-based; details: 12 h, 1 µM, compound concentration 1 uM, replicate 1
# number then unit; no other words

Answered examples (2):
Lookup: Lab request: please report Population Tubulin-Different-Phenotype (%) under test system Fibroblast for C[C@H](NC(=O)c1c(C(F)F)nn(C)c1Oc1cccc(C(F)(F)F)c1)c1ccc(C(=O)O)cc1 [PALUPIPRANT]
Found: 23%

Lookup: What do you get for O=C(NCCO)c1cccc(-c2cc(Nc3ccc(OC(F)(F)F)cc3)ncn2)c1 ?
Found: 33%

***
Lookup: Lab request: please report Population Tubulin-Different-Phenotype (%) under test system Fibroblast for Cc1ccc(C(C)(O)c2nc3ccccc3s2)c(C)c1 (stereo not drawn)
Found: 29%
